Test system: mouse carcinogenicity bioassay, TD50 from CPDB
Protocol Details: DSSTox (CPDBAS) Carcinogenic Potency Database Summary Mouse Bioassay Results
Test Settings: TargetSites_Mouse_Female: liver
Readout: Potency

INSERT INTO measurements (molecule, readout, reported_measurement) VALUES
  ('CCCc1c(OCCCCc2nn[nH]n2)ccc(C(C)=O)c1O', 'Potency', '0.352 mmol/kg/day'),
  ('CCCCC(CC)CO (configuration not stated)', 'Potency', '12.9 mmol/kg/day'),
  ('O=C1NC(=O)C(c2ccccc2)(c2ccccc2)N1', 'Potency', '0.234 mmol/kg/day'),
  ('Cc1ccc(N)cc1N', 'Potency', '0.219 mmol/kg/day'),
  ('CN(C)c1ccc(Cc2ccc(N(C)C)cc2)cc1', 'Potency', '0.814 mmol/kg/day'),
  ('CCCCCC', 'Potency', '352 mmol/kg/day'),
  ('Nc1cc(Cl)cc(C(=O)O)c1Cl', 'Potency', '25.4 mmol/kg/day');
